Assay: Test on pharmacokinetics of Example 1 (blood plasma)
Format: in vivo, mice
Conditions: mouse, iv, 10 mg/kg in terms of DXR i.v., read-out: AUC0-6 hr. Unchanged drug (DXR prodrug)
ATTRIBUTE MEASURED: AUC(0-t) (ng·h/mL)
# output: bare number, implied unit ng·h/mL

Q. Please look up its AUC(0-t): COc1cccc2c1C(=O)c1c(O)c3c(c(O)c1C2=O)C[C@@](O)(C(=O)CO)CC3OC1CC(NC(=O)OCc2ccc(NC(=O)CCC(N)C(=O)O)cc2)C(O)C(C)O1 (stereo partly shown) [Synthesis Example 1]
A. 6240
